This collection of values is drawn from the supplement of paper PMC8149375.

- Test system: SN12C
- assay protocol: GI50 of drug in presence of dasatinib; higher = less potent
- stated conditions: treatment: drug + dasatinib (fixed dose, not stated); 5 days
Reported GI50 of drug values follow for various compounds

compound | result units | GI50 of drug
Cc1cc(Nc2cc(CN3CCOCC3)c3nc(C)c(Cc4ccc(Cl)cc4F)n3n2)[nH]n1 + Cc1nc(Nc2ncc(C(=O)Nc3c(C)cccc3Cl)s2)cc(N2CCN(CCO)CC2)n1 | nM | 1340
CC1(COc2ccc3c(c2)ncn3-c2ccc3cccc(N4CCC(N)CC4)c3n2)COC1 + Cc1nc(Nc2ncc(C(=O)Nc3c(C)cccc3Cl)s2)cc(N2CCN(CCO)CC2)n1 | nM | 1280
NC1(Cc2ccc(Cl)cc2)CCN(c2ncnc3[nH]ccc23)CC1 + Cc1nc(Nc2ncc(C(=O)Nc3c(C)cccc3Cl)s2)cc(N2CCN(CCO)CC2)n1 | nM | 4470
O=C(Cc1ccc(-c2ccc(OCCN3CCOCC3)cc2)cn1)NCc1ccccc1 [KX2-391] + Cc1nc(Nc2ncc(C(=O)Nc3c(C)cccc3Cl)s2)cc(N2CCN(CCO)CC2)n1 | nM | 46.7
Cc1ncc(-c2ccnc(Nc3ccc(S(C)(=O)=O)cc3)n2)n1C(C)C [AZD5438] + Cc1nc(Nc2ncc(C(=O)Nc3c(C)cccc3Cl)s2)cc(N2CCN(CCO)CC2)n1 | nM | 1760

* * *

- Test system: 769-P
- assay protocol: AUC of dose-response viability curve, drug alone (arbitrary (AUC of normalised viability)); higher = less growth inhibition
- stated conditions: treatment: drug alone; 5 days
Mark Satisfied for AUC of dose-response viability curve under 3, Not satisfied if at or over.

molecule | tgt | classification
Oc1cc(O)cc(/C=C/c2ccc(O)c(O)c2)c1 | 769-P | Satisfied
FC(F)c1nc2ccccc2n1-c1nc(N2CCOCC2)nc(N2CCOCC2)n1 | 769-P | Satisfied
CCCS(=O)(=O)Nc1ccc(F)c(C(=O)c2c[nH]c3ncc(-c4ccc(Cl)cc4)cc23)c1F | 769-P | Satisfied
CC(C)c1ccccc1Cc1cc(C(=O)Nc2ccc(S(=O)(=O)c3ccccc3C(C)(C)C)cc2)c(O)c(O)c1O | 769-P | Not satisfied
COc1ccc2cc(-c3[nH]c(-c4ccc(S(C)=O)cc4)nc3-c3ccncc3)ccc2c1 (configuration not stated) | 769-P | Not satisfied
COc1cc2ncnc(Nc3ccc(O)c(Br)c3)c2cc1OC | 769-P | Not satisfied

* * *

Reported minimum viability across doses values follow for various compounds
- Tested on: CAKI-1
- assay protocol: minimum viability across doses, drug + dasatinib, relative to DMSO (fraction); higher = less growth inhibition
- stated conditions: treatment: drug + dasatinib (fixed dose, not stated); 5 days
reported metric: minimum viability across doses

compound | reported metric | recorded measurement
CNC(=O)CN1CCC(Oc2cc3c(Nc4cccc(Cl)c4F)ncnc3cc2OC)CC1 [AZD8931] + Cc1nc(Nc2ncc(C(=O)Nc3c(C)cccc3Cl)s2)cc(N2CCN(CCO)CC2)n1 | minimum viability across doses | 0.332
COc1ccc(-c2ccc3ncc4c(c3c2)n(-c2ccc(N3CCNCC3)c(C(F)(F)F)c2)c(=O)n4C)cn1.O=C(O)/C=C\C(=O)O [NVP-BGT226] + Cc1nc(Nc2ncc(C(=O)Nc3c(C)cccc3Cl)s2)cc(N2CCN(CCO)CC2)n1 | minimum viability across doses | 0.00249
c1ccc2c(CCNc3ccc(Nc4ccncc4)cc3)c[nH]c2c1 + Cc1nc(Nc2ncc(C(=O)Nc3c(C)cccc3Cl)s2)cc(N2CCN(CCO)CC2)n1 | minimum viability across doses | 0.0392
Nc1nc(N)c2nc(-c3cccc(O)c3)cnc2n1 + Cc1nc(Nc2ncc(C(=O)Nc3c(C)cccc3Cl)s2)cc(N2CCN(CCO)CC2)n1 | minimum viability across doses | 0.0946
C=CC(=O)Nc1cccc(Oc2nc(Nc3ccc(N4CCN(C)CC4)cc3)ncc2Cl)c1 [WZ3146] + Cc1nc(Nc2ncc(C(=O)Nc3c(C)cccc3Cl)s2)cc(N2CCN(CCO)CC2)n1 | minimum viability across doses | 0.00112

* * *

Reported minimum viability across doses values follow for various molecules
- System: UO-31
- assay protocol: minimum viability across doses, drug alone, relative to DMSO (fraction); higher = less growth inhibition
- stated conditions: treatment: drug alone; 5 days

molecule | minimum viability across doses
CNC(=O)c1ccc(-c2cnc3ncc(Cc4ccc5ncccc5c4)n3n2)cc1F | 1.21
O=c1cc(-c2cccc3c2Sc2ccccc2S3)oc(N2CCOCC2)c1 | 0.981
c1cncc(CN2CCC(n3ncc4c(N5CCOCC5)nc(-c5ccc6[nH]ccc6c5)nc43)CC2)c1 [WAY-600] | 0.00348
CCn1nnc2c(N3CCOCC3)nc(-c3ccc(NC(=O)Nc4ccc(C(=O)N5CCN(C)CC5)cc4)cc3)nc21 [PKI-402] | 0.0165

* * *

- System: UO-31
- assay protocol: GI50 of drug in presence of dasatinib; higher = less potent
- stated conditions: treatment: drug + dasatinib (fixed dose, not stated); 5 days
Mark yes (1) for GI50 of drug under 3 µM, no (0) if at or over.

compound | tgt | classification
Nc1nccc(Oc2ccc(NC(=O)c3c[nH]cc(-c4ccc(F)cc4)c3=O)cc2F)c1Cl + Cc1nc(Nc2ncc(C(=O)Nc3c(C)cccc3Cl)s2)cc(N2CCN(CCO)CC2)n1 | UO-31 | no (0)
CN(C)c1ccc(-c2nc3c(N4CCN(CC(=O)Nc5nccs5)CC4)c(Cl)cnc3[nH]2)cc1 + Cc1nc(Nc2ncc(C(=O)Nc3c(C)cccc3Cl)s2)cc(N2CCN(CCO)CC2)n1 | UO-31 | yes (1)
CNC(=O)c1ccccc1Nc1nc(Nc2ccc(N3CCOCC3)cc2OC)ncc1Cl [NVP-TAE226] + Cc1nc(Nc2ncc(C(=O)Nc3c(C)cccc3Cl)s2)cc(N2CCN(CCO)CC2)n1 | UO-31 | yes (1)
CCC[C@H](NC(=O)/C(C#N)=C/c1cccc(Br)n1)c1ccccc1 [WP1130] + Cc1nc(Nc2ncc(C(=O)Nc3c(C)cccc3Cl)s2)cc(N2CCN(CCO)CC2)n1 | UO-31 | no (0)
COc1ccc2c(c1OC)N=C(NC(=O)c1cccnc1)N1CCN=C21 [PIK-90] + Cc1nc(Nc2ncc(C(=O)Nc3c(C)cccc3Cl)s2)cc(N2CCN(CCO)CC2)n1 | UO-31 | no (0)
COC(=O)c1ccc2c(c1)NC(=O)/C2=C(\Nc1ccc(N(C)C(=O)CN2CCN(C)CC2)cc1)c1ccccc1 [BIBF1120 (Vargatef)] + Cc1nc(Nc2ncc(C(=O)Nc3c(C)cccc3Cl)s2)cc(N2CCN(CCO)CC2)n1 | UO-31 | yes (1)
Cc1ccccc1-n1c(Cn2ncc3c(N)ncnc32)nc2cccc(C)c2c1=O [PIK-293] + Cc1nc(Nc2ncc(C(=O)Nc3c(C)cccc3Cl)s2)cc(N2CCN(CCO)CC2)n1 | UO-31 | no (0)
CC(C)c1cnn2c(NCc3ccccc3)cc(NCCCCCCN)nc12.Cl [BS-181 HCl] + Cc1nc(Nc2ncc(C(=O)Nc3c(C)cccc3Cl)s2)cc(N2CCN(CCO)CC2)n1 | UO-31 | no (0)
CNC(=O)c1cc(COc2nnc(Nc3ccc(Cl)cc3)c3ccoc23)ccn1 [Telatinib (BAY 57-9352)] + Cc1nc(Nc2ncc(C(=O)Nc3c(C)cccc3Cl)s2)cc(N2CCN(CCO)CC2)n1 | UO-31 | no (0)

* * *

Reported AUC of dose-response viability curve values follow for various compounds
- System: 786-O
- assay protocol: AUC of dose-response viability curve, drug + dasatinib, normalised to DMSO (arbitrary (AUC of normalised viability)); higher = less growth inhibition
- stated conditions: treatment: drug + dasatinib (fixed dose, not stated); 5 days

compound | AUC of dose-response viability curve
Nc1nc(Nc2ccc(S(N)(=O)=O)cc2)nn1C(=O)c1c(F)cccc1F + Cc1nc(Nc2ncc(C(=O)Nc3c(C)cccc3Cl)s2)cc(N2CCN(CCO)CC2)n1 [dasatinib] | 1.7
CC(=O)Nc1cccc(-n2c(=O)n(C3CC3)c(=O)c3c(Nc4ccc(I)cc4F)n(C)c(=O)c(C)c32)c1 + Cc1nc(Nc2ncc(C(=O)Nc3c(C)cccc3Cl)s2)cc(N2CCN(CCO)CC2)n1 [dasatinib] | 1.48
CO[C@H]1C[C@@H]2CC[C@@H](C)[C@@](O)(O2)C(=O)C(=O)N2CCCC[C@H]2C(=O)O[C@H]([C@H](C)C[C@@H]2CC[C@@H](O)[C@H](OC)C2)CC(=O)[C@H](C)/C=C(\C)[C@@H](O)[C@@H](OC)C(=O)[C@H](C)C[C@H](C)/C=C/C=C/C=C/1C [Rapamycin (Sirolimus)] + Cc1nc(Nc2ncc(C(=O)Nc3c(C)cccc3Cl)s2)cc(N2CCN(CCO)CC2)n1 [dasatinib] | 0.989
COc1ncc(-c2ccc3nccc(-c4ccnnc4)c3c2)cc1NS(=O)(=O)c1ccc(F)cc1F + Cc1nc(Nc2ncc(C(=O)Nc3c(C)cccc3Cl)s2)cc(N2CCN(CCO)CC2)n1 [dasatinib] | 0.564
Oc1ccc(-c2nc(-c3ccc(F)cc3)c(-c3ccncc3)[nH]2)cc1 + Cc1nc(Nc2ncc(C(=O)Nc3c(C)cccc3Cl)s2)cc(N2CCN(CCO)CC2)n1 [dasatinib] | 2.57
Cc1[nH]c(/C=C2/C(=O)Nc3ccc(S(=O)(=O)N(C)c4cccc(Cl)c4)cc32)c(C)c1C(=O)N1CCN(C)CC1 + Cc1nc(Nc2ncc(C(=O)Nc3c(C)cccc3Cl)s2)cc(N2CCN(CCO)CC2)n1 [dasatinib] | 2.29
CN(C)CC[C@H](CSc1ccccc1)Nc1ccc(S(=O)(=O)NC(=O)c2ccc(N3CCN(Cc4ccccc4-c4ccc(Cl)cc4)CC3)cc2)cc1[N+](=O)[O-] [ABT-737] + Cc1nc(Nc2ncc(C(=O)Nc3c(C)cccc3Cl)s2)cc(N2CCN(CCO)CC2)n1 [dasatinib] | 1.74
Cl.Cl.Clc1ccc(Nc2nnc(Cc3ccncc3)c3ccccc23)cc1 [Vatalanib dihydrochloride (PTK787)] + Cc1nc(Nc2ncc(C(=O)Nc3c(C)cccc3Cl)s2)cc(N2CCN(CCO)CC2)n1 [dasatinib] | 2.65
O=C1NC(=O)/C(=C/c2ccc3nccnc3c2)S1 + Cc1nc(Nc2ncc(C(=O)Nc3c(C)cccc3Cl)s2)cc(N2CCN(CCO)CC2)n1 [dasatinib] | 2.15
O=C1C(=O)N(Cc2ccc(Cl)c(Cl)c2)c2ccccc21 [Apoptosis Activator 2] + Cc1nc(Nc2ncc(C(=O)Nc3c(C)cccc3Cl)s2)cc(N2CCN(CCO)CC2)n1 [dasatinib] | 1.72
c1cncc(CN2CCC(n3ncc4c(N5CCOCC5)nc(-c5ccc6[nH]ccc6c5)nc43)CC2)c1 [WAY-600] + Cc1nc(Nc2ncc(C(=O)Nc3c(C)cccc3Cl)s2)cc(N2CCN(CCO)CC2)n1 [dasatinib] | 1.56
Cc1cc(Nc2cc(CN3CCOCC3)c3nc(C)c(Cc4ccc(Cl)cc4F)n3n2)[nH]n1 + Cc1nc(Nc2ncc(C(=O)Nc3c(C)cccc3Cl)s2)cc(N2CCN(CCO)CC2)n1 [dasatinib] | 1.65
O=C(c1ccc(/C=C/c2n[nH]c3ccccc23)cc1)N1CCNCC1 [KW 2449] + Cc1nc(Nc2ncc(C(=O)Nc3c(C)cccc3Cl)s2)cc(N2CCN(CCO)CC2)n1 [dasatinib] | 2.58
CCc1cnn2c(NCc3ccc[n+]([O-])c3)cc(N3CCCC[C@H]3CCO)nc12 + Cc1nc(Nc2ncc(C(=O)Nc3c(C)cccc3Cl)s2)cc(N2CCN(CCO)CC2)n1 [dasatinib] | 0.357
CC(C)(C)c1cc(/C=C(\C#N)C(N)=S)cc(C(C)(C)C)c1O [Tyrphostin AG 879 (AG 879)] + Cc1nc(Nc2ncc(C(=O)Nc3c(C)cccc3Cl)s2)cc(N2CCN(CCO)CC2)n1 [dasatinib] | 1.83
COc1ccc(-c2ccc3c(N4CCOCC4)nc(N4C[C@@H](C)O[C@@H](C)C4)nc3n2)cc1CO + Cc1nc(Nc2ncc(C(=O)Nc3c(C)cccc3Cl)s2)cc(N2CCN(CCO)CC2)n1 [dasatinib] | 1.93
CCn1c(N)c(C(=O)NC)c(=O)c2ccc(C#C[C@@](C)(O)COC)nc21 + Cc1nc(Nc2ncc(C(=O)Nc3c(C)cccc3Cl)s2)cc(N2CCN(CCO)CC2)n1 [dasatinib] | 2.59
